Data credit: patent US8771665B2

Target: HCV1b NS5B polymerase delta 21 (Hepatitis C virus genotype 1b)
Construct: purified HCV1b NS5B polymerase delta 21
Sequence (P26663 2420-2989): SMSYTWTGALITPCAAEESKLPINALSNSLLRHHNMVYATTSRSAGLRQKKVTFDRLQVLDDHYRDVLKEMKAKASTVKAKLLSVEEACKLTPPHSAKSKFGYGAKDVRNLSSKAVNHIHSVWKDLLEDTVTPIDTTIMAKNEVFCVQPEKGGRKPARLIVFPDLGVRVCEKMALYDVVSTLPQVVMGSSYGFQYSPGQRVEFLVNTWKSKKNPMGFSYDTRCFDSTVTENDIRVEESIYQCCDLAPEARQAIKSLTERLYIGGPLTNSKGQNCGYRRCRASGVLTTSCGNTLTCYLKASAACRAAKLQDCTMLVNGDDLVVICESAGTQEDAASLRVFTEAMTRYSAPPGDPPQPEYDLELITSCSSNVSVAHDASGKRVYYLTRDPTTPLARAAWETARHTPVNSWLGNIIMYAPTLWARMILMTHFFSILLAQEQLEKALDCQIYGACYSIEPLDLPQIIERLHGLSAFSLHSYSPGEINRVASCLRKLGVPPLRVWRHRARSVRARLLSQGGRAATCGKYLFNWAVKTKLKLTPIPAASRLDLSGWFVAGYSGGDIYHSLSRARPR
Test: RNA-Dependent RNA HCV NS5B (Polymerase) Assay and IC50 Determination
Format: biochemical
Examples of compounds with documented IC50 follow.

Completed entries (count: 3):
Cc1cc(C)n2nc(CCCN3CCC(c4cc(-c5ccccc5)sc4C(=O)O)=C(C4CCC(C)CC4)C3)nc2n1 (centres unmarked) [Example 091]
< 3 µM
CC1CCC(C2=C(c3cc(-c4ccccc4)sc3C(=O)O)CCN(C(=O)c3ccc(C(F)(F)F)nc3)C2)CC1 (centres unmarked) [Example 154]
< 3 µM
CC1CCC(C2=C(c3cc(-c4ccc(-c5cn6ncccc6n5)cc4)sc3C(=O)O)CCN(C)C2)CC1 (centres unmarked) [Example 164]
3 to 10 µM

Need IC50, item CCN1CCC(c2cc(-c3cccc(NC(C)=O)c3)sc2C(=O)O)=C(C2CCC(C)CC2)C1 (centres unmarked) [Example 024] > 10 µM

Need IC50, item CC1CCC(C2=C(c3cc(-c4ccccc4)sc3C(=O)O)CCN(CCC(=O)O)C2)CC1 (centres unmarked) [Example 083] 3 to 10 µM

###

Molecular target: HCV1b NS5B polymerase delta 21 (Hepatitis C virus genotype 1b)
Construct: purified HCV1b NS5B polymerase delta 21
Assay: RNA-Dependent RNA HCV NS5B (Polymerase) Assay and IC50 Determination
Type: biochemical
Experimental: RNA-Dependent RNA HCV NS5B (Polymerase) Assay and IC50 Determination In vitro RNA-dependent RNA polymerase activity was determined in a reaction mixture (50 μL) containing 50 mM Tris-HCl, pH 7.5, 5 mM MgCl2, 1 mM dithiothreitol, 0.5% Triton® X-100, 10 μM of UTP, 0.1-0.5 μCi of α-^32P UTP (Perkin Elmer Life Sciences), 1 μg of polyA:U16 (Midland Oligo), and 0.6 μg of purified HCV1b NS5B polymerase delta 21. […] IC50 values were calculated using GraFit 6 and GraphPad Prism 5 from triplicate assays.
Where a name gives a salt, the structure may show the parent alone.
Examples of compounds with documented IC50 follow.

CC1CCC(C2=C(c3cc(-c4ccccc4)sc3C(=O)O)CCN(CCc3ccccc3)C2)CC1 (centres unmarked)
> 10 µM

Need IC50, item CCN1CCC(c2cc(-c3ccc(NC(=O)c4cn[nH]c4)cc3)sc2C(=O)O)=C(C2CCC(C)CC2)C1 (centres unmarked) 3 to 10 µM

Need IC50, item CC1CCC(C2=C(c3cc(-c4ccc(-c5cc6nccc(N)n6n5)cc4)sc3C(=O)O)CCN(C)C2)CC1 (centres unmarked) [Example 132, hydrochloride salt] < 3 µM

Need IC50, item CC1CCC(C2=C(c3cc(-c4ccccc4)sc3C(=O)O)CCN(Cc3ccnc(-c4ccc(F)cc4)c3)C2)CC1 (centres unmarked) > 10 µM

Need IC50, item CCN1CCC(c2cc(C#CC(C)(C)N)sc2C(=O)O)=C(C2CCC(C)CC2)C1 (centres unmarked) < 3 µM

Need IC50, item CC1CCC(C2=C(c3cc(-c4ccccc4)sc3C(=O)O)CCN(Cc3ccc(Br)cn3)C2)CC1 (centres unmarked) 3 to 10 µM

Need IC50, item CC1CCC(C2=C(c3cc(-c4ccc(NC(=O)c5ccccn5)cc4)sc3C(=O)O)CCN(C)C2)CC1 (centres unmarked) < 3 µM

Need IC50, item CCN1CCC(c2cc(-c3ccc(NC(=O)c4cncs4)cc3)sc2C(=O)O)=C(C2CCC(C)CC2)C1 (centres unmarked) 3 to 10 µM

Need IC50, item CN1CCC(c2cc(-c3ccccc3)sc2C(=O)O)=C(CCC2CCCC2)C1 > 10 µM

Need IC50, item CC1CCC(C2=C(c3cc(-c4ccccc4)sc3C(=O)O)CCN(Cc3ccnc(-c4cccs4)c3)C2)CC1 (centres unmarked) > 10 µM

Need IC50, item CC1CCC(C2=C(c3cc(-c4ccccc4)sc3C(=O)O)CCN(Cc3ccccn3)C2)CC1 (centres unmarked) < 3 µM

Need IC50, item CCN1CCC(c2cc(-c3ccc(NC(=O)c4cocn4)cc3)sc2C(=O)O)=C(C2CCC(C)CC2)C1 (centres unmarked) < 3 µM

Need IC50, item CC1CCC(C2=C(c3cc(-c4ccc(-c5cc6ncccn6n5)cc4)sc3C(=O)O)CCN(Cc3ccccn3)C2)CC1 (centres unmarked) 3 to 10 µM
